// provenance: patent US12441768B2

# Protocol Notes: in vitro
# Details: % Viability non-Wnt responsive cells
Where a SMILES comes first, the peptide text is derived from it.
I'd be grateful if you could share measured viability for these entries.
Report only the number, with the unit % understood.

q: What does the data say about its viability? Entry: CC[C@H](C)[C@H](NC(=O)[C@H](CO)NC(=O)[C@H](CCC(=O)O)NC(=O)[C@H](Cc1c[nH]c2ccccc12)NC(=O)[C@@H](N)CCSC)C(=O)N[C@@H](CC(C)C)C(=O)N[C@@H](CC(=O)O)C(=O)N[C@@H](CCC(=O)O)C(=O)N[C@@H](Cc1c[nH]cn1)C(=O)N[C@H](C(=O)N[C@@H](CCC(N)=O)C(=O)N[C@@H](CCCNC(=N)N)C(=O)N[C@H](C(=O)N[C@@H](Cc1c[nH]c2ccccc12)C(=O)NCC(=O)O)C(C)C)C(C)C [compound 22] (H-MWESILDEHVQRVWG-OH)
a: 99.6

q: Next: CC[C@H](C)[C@H](NC(=O)[C@H](CC(C)C)NC(=O)[C@H](Cc1ccccc1)NC(=O)[C@H](Cc1c[nH]c2ccccc12)NC(=O)[C@@H](N)CCSC)C(=O)N[C@@H](CO)C(=O)N[C@@H](Cc1ccccc1)C(=O)N[C@@H](Cc1c[nH]c2ccccc12)C(=O)NCC(=O)O [compound 17] (H-MWFLISFWG-OH)
a: 98

q: Next: CC[C@@H](C)[C@H]1NC(=O)[C@@H](CC(C)C)NC(=O)[C@@H](Cc2ccccc2)NC(=O)[C@H](Cc2c[nH]c3ccccc23)NC(=O)[C@@H](CCSC)NC(=O)CCCCCCCCCCCNC(=O)C[C@@H](C(=O)O)NC(=O)[C@H](Cc2c[nH]c3ccccc23)NC(=O)[C@@H](Cc2ccccc2)NC(=O)[C@H](CS)NC1=O [compound 190] (HELM PEPTIDE1{[O=C(CCCCCCCCCCCN[*:1])[*:2]].[dM].W.[dF].[dL].[dI].C.[dF].W.D}$PEPTIDE1,PEPTIDE1,1:R1-10:R3$$$V2.0)
a: 99.6

====

# System: β-catenin (Homo sapiens)
# Sequence (P35222 1-781): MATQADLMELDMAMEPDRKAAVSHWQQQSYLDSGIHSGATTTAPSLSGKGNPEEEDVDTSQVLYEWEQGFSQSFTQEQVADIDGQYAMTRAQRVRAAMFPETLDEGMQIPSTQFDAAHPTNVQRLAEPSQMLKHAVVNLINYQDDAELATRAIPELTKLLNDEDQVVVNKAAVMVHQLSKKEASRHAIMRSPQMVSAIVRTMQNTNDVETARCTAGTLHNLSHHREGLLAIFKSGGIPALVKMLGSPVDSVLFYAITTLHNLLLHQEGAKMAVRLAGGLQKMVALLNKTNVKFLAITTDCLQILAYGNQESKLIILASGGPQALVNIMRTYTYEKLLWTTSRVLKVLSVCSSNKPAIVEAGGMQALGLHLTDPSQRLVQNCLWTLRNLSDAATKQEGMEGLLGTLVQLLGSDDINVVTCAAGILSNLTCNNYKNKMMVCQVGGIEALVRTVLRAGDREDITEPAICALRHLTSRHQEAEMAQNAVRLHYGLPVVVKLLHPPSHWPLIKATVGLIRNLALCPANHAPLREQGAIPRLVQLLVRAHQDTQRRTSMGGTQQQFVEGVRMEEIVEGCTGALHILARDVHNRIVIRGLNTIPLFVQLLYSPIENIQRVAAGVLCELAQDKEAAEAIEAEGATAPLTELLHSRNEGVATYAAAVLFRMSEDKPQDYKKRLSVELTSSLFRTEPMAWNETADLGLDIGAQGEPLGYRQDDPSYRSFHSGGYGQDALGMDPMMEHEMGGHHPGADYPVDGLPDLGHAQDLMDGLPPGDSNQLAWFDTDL
# Protocol Notes: KD50 measurement using competitive fluorescence polarization (FP) with labelled TCF4
# Assay type: binding
# Details: fluorescence polarization, β-catenin
Where a SMILES comes first, the peptide text is derived from it.
Readout Kind: β-Cat FP Hill slope
Just the number, please, no unit after it.

q: What does the data say about its β-Cat FP Hill slope? Entry: CC[C@@H]1NC(=O)[C@H]([C@@H](C)CC)NC(=O)[C@H](CC(C)C)NC(=O)[C@H](CC2CCCCC2)NC(=O)[C@H](Cc2c[nH]c3ccccc23)NC(=O)[C@@H](NC(C)=O)CCCCNC(=O)C[C@@H](C(=O)O)NC(=O)[C@H](Cc2c[nH]c3ccccc23)NC(=O)[C@H](C)NC1=O [compound 261] (HELM PEPTIDE1{[ac].K.W.[Cha].L.I.[Abu].A.W.D}$PEPTIDE1,PEPTIDE1,2:R3-10:R3$$$V2.0)
a: 3

q: Next: CC[C@H](C)[C@H](NC(=O)[C@H](CC(C)C)NC(=O)[C@@H](NC(=O)[C@H](Cc1c[nH]c2ccccc12)NC(=O)[C@H](CCSC)NC(C)=O)C1CCCCC1)C(=O)N[C@@H](CO)C(=O)N[C@@H](Cc1ccccc1)C(=O)N[C@@H](Cc1c[nH]c2ccccc12)C(=O)NCC(=O)O [compound 217] (HELM PEPTIDE1{[ac].M.W.[O=C([C@@H](N[*:1])C1CCCCC1)[*:2]].L.I.S.F.W.G}$$$$V2.0)
a: 1.47

q: Next: CC[C@H](C)[C@H](NC(=O)[C@H](CC(C)C)NC(=O)[C@@H](NC(=O)[C@H](Cc1c[nH]c2ccccc12)NC(=O)[C@H](CCSC)NC(=O)C(C)(C)C)[C@@H](C)CC)C(=O)N[C@@H](CO)C(=O)N[C@@H](Cc1ccccc1)C(=O)N[C@@H](Cc1c[nH]c2ccccc12)C(=O)NCC(=O)O [compound 225] (HELM PEPTIDE1{[CC(C)(C)C(=O)[*:2]].M.W.I.L.I.S.F.W.G}$$$$V2.0)
a: 0.7

====

# Details: % Viability non-Wnt responsive cells
Where a SMILES comes first, the peptide text is derived from it.
Readout Kind: viability (%)
Report only the number, with the unit % understood.

q: What does the data say about its viability? Entry: CC[C@H](C)[C@H](NC(=O)[C@H](CC(C)C)NC(=O)[C@@H](NC(=O)[C@H](Cc1c[nH]c2ccccc12)NC(=O)[C@H](CCSC)NC(=O)[C@@H](N)CCCNC(=N)N)[C@@H](C)CC)C(=O)N[C@@H](CO)C(=O)N[C@@H](Cc1ccccc1)C(=O)N[C@@H](Cc1c[nH]c2ccccc12)C(=O)NCC(=O)O [compound 124] (H-RMWILISFWG-OH)
a: 102

q: Next: CC[C@H](C)[C@H](NC(=O)[C@H](CC(C)C)NC(=O)[C@H](Cc1ccccc1)NC(=O)[C@H](Cc1c[nH]c2ccccc12)NC(=O)[C@@H](N)CCSC)C(=O)N[C@@H](CS)C(=O)N[C@@H](Cc1cn(C)cn1)C(=O)N[C@@H](Cc1c[nH]c2ccccc12)C(=O)NCC(=O)O [compound 140] (HELM PEPTIDE1{M.W.F.L.I.C.[Cn1cnc(C[C@H](N[*:1])C(=O)[*:2])c1].W.G}$$$$V2.0)
a: 102

q: Next: CC[C@H](C)[C@H](NC(=O)[C@H](CC(C)C)NC(=O)[C@H](CC(C)C)NC(=O)[C@H](Cc1c[nH]c2ccccc12)NC(=O)[C@H](CCSC)NC(C)=O)C(=O)N[C@@H](CO)C(=O)N[C@@H](Cc1ccccc1)C(=O)N[C@@H](Cc1c[nH]c2ccccc12)C(=O)NCC(=O)O [compound 218] (Ac-MWLLISFWG-OH)
a: 90.8

q: Next: CC[C@H](C)[C@H](NC(=O)[C@H](Cc1c[nH]c2ccccc12)NC(=O)[C@@H](N)CCSC)C(=O)N[C@@H](CC(C)C)C(=O)N[C@H](C(=O)NC(C)(CO)C(=O)N[C@@H](Cc1ccccc1)C(=O)N[C@@H](Cc1c[nH]c2ccccc12)C(=O)NCC(=O)O)[C@@H](C)CC (stereo partly drawn) [compound 136] (HELM PEPTIDE1{M.W.I.L.I.[CC(CO)(N[*:1])C(=O)[*:2]].F.W.G}$$$$V2.0)
a: 106

q: Next: CC[C@H](C)[C@H](NC(=O)[C@H](CC(C)C)NC(=O)[C@H](Cc1ccccc1)NC(=O)[C@H](Cc1c[nH]c2ccccc12)NC(=O)[C@@H](NC(=O)[C@H](CCCNC(=N)N)NC(=O)[C@H](CO)NC(=O)[C@@H](N)CCSC)[C@@H](C)O)C(=O)N[C@@H](CO)C(=O)N[C@@H](Cc1ccccc1)C(=O)N[C@@H](Cc1c[nH]c2ccccc12)C(N)=O [compound 76] (H-MSRTWFLISFW-NH2)
a: 105

q: Next: CC[C@H](C)[C@@H]1NC(=O)[C@H](CC(C)C)NC(=O)[C@H](CC2CCCCC2)NC(=O)[C@H](Cc2c[nH]c3ccccc23)NC(=O)[C@@H](N)CCCCNC(=O)C[C@@H](C(=O)O)NC(=O)[C@H](Cc2c[nH]c3ccccc23)NC(=O)[C@H](C)NC(=O)[C@H](CO)NC1=O [compound 203] (HELM PEPTIDE1{K.W.[Cha].L.I.S.A.W.D}$PEPTIDE1,PEPTIDE1,1:R3-9:R3$$$V2.0)
a: 98
